assay: physchem; conditions: pH 6.8, aqueous buffer, kinetic from dmso stock, Solubility (pH 6.8)
solubility at 24 h listing for selected compounds.
recorded endpoint: solubility at 24 h

INSERT INTO results (compound, result) VALUES
  ('CCOC[C@H]1N(c2cccc(-c3cccc(C)c3OCc3cc(C)c4c(c3)CCN(C3CCOCC3)C4)n2)C[C@@H]2C[C@@]21C(=O)O', '0.119 mg/mL'),
  ('Cc1c(COc2ccccc2-c2cccc(N3CC[C@@]4(C(=O)O)C[C@H]4C3)n2)ccc2c1CCNC2', '0.0007 mg/mL'),
  ('COc1cc(COc2c(C)cccc2-c2csc(N3CC[C@@H](C(=O)O)[C@@H](OC)C3)n2)c(F)c2c1CN(C1CCOCC1)CC2', '0.0729 mg/mL'),
  ('CCO[C@@H]1CN(c2nc(-c3cc(C)ccc3OCc3cc(OC)c4c(c3F)CCN(C3CCOCC3)C4)cs2)CC[C@@H]1C(=O)O', '0.0185 mg/mL'),
  ('Cc1cccc(-c2csc(N3CC[C@@]4(C(=O)O)C[C@H]4C3)n2)c1OCc1ccc2c(c1C)CCN(C1CCOC1)C2 (stereo partly drawn)', '0.048 mg/mL'),
  ('CCO[C@@H]1CN(c2cccc(-c3cccc(Cl)c3OCc3cc4c(c(OC)c3)CN(C3CCOCC3)CC4)n2)CC[C@@H]1C(=O)O', '0.0583 mg/mL');

---

assay: physchem; conditions: pH 4.5, aqueous buffer, kinetic from dmso stock, Solubility (pH 4.5)
recorded endpoint: solubility at 24 h (µg/mL)

INSERT INTO results (smiles_structure, result_unit, number) VALUES
  ('Cc1cc(COc2c(C)cccc2-c2csc(N3CC[C@@]4(C(=O)O)C[C@H]4C3)n2)cc2c1CN(C1CCC(F)(F)CC1)CC2', 'µg/mL', 16.4),
  ('CCO[C@H]1CN(c2nc(-c3cccc(C)c3OCc3cc4c(c(OC)c3)CN(C3CCOCC3)CC4)cs2)CC[C@H]1C(=O)O', 'µg/mL', 131),
  ('COC[C@H]1N(c2cccc(-c3cccc(C)c3OCc3cnc4c(c3)CCN(C3CCOCC3)CC4)n2)C[C@@H]2C[C@@]21C(=O)O', 'µg/mL', 152);

---

assay: physchem; conditions: pH 2.2, aqueous buffer, kinetic from dmso stock, Solubility (pH 2.2)
Param threshold (100 µg/mL) applies to solubility at 24 h; output class 1 when value >= threshold, class 0 when value < threshold.

INSERT INTO measurements (molecule, discrete_label) VALUES
  ('Cc1c(COc2ccccc2-c2cccc(N3CC[C@@]4(C(=O)O)C[C@H]4C3)n2)ccc2c1CCN(C1CCOCC1)C2 [Compound 6]', 'class 1'),
  ('Cc1cccc(-c2cccc(N3CC[C@H](C(=O)O)[C@@H]4OCCC[C@H]43)n2)c1OCc1ccc2c(c1C)CCN(C1CCOCC1)CC2 [Compound 337]', 'class 1'),
  ('COc1cc(COc2c(C)cccc2-c2csc(N3CC[C@@H](C(=O)O)[C@@H](OC)C3)n2)cc2c1CN([C@@H]1CCOC1)CC2 [Compound 210]', 'class 1'),
  ('CCO[C@H]1CN(c2cccc(-c3cc(C)ccc3OCc3cc4c(c(OC)c3)CN(C3CCOCC3)CC4)n2)CC[C@H]1C(=O)O [Compound 235]', 'class 1'),
  ('Cc1cccc(-c2csc(N3C[C@H]4C[C@@]4(C(=O)O)[C@@H]3C)n2)c1OCc1ccc2c(c1C)CCN(C1CCOCC1)C2 [Compound 155]', 'class 0');

Where these numbers come from: patent US9353090B2
